Measurement Protocol: Cytotoxicity against mouse RAW264.7 cells assessed as cell viability after 24 hrs by MTT assay
Assay type: cell-based
Parameters: concentration or dose not given beside the values
Assay Context: read-out: Activity
Exam item: assign 1 (yes) to entries whose viability at 24 h is below 90% and 0 (no) to entries at or above 90%. Note that a value of exactly 90% receives 0 (no).

Query string: In the record for C=C(C)[C@@H]1CC[C@]2(C(=O)O[C@@H]3O[C@H](CO)[C@@H](O)[C@H](O)[C@H]3O)CC[C@]3(C)[C@H](C[C@@H](O)[C@@H]4[C@@]5(C)[C@@H](CC(=O)OC)OC(C)(C)[C@@H]5CC[C@]43C)[C@@H]12 [ACANTHOSESSILIOSIDE B] , is viability at 24 h less than 90%?
Result string: 0 (no)

Query string: hey, is viability at 24 h for N=C(N)NN lower than 90% or not?
Result string: 1 (yes)

Query string: Is the reported viability at 24 h for C=C(C)[C@@H]1CC[C@]2(C(=O)O[C@@H]3O[C@H](CO)[C@@H](O)[C@H](O)[C@H]3O)CC[C@]3(C)[C@H](CC[C@@H]4[C@@](C)(CCC(=O)O)[C@H](C(=C)C)CC[C@]43C)[C@@H]12 [ACANTHOSESSILIOSIDE A] strictly below 90%?
Result string: 0 (no)

Query string: Field: below-cutoff. Rule: recorded viability at 24 h strictly less than 90%. Subject: C=C(C)[C@@H]1CC[C@]2(C(=O)O)CC[C@]3(C)[C@H](CC[C@@H]4[C@@]5(C)[C@@H](CC(=O)O[C@@H]6O[C@H](CO)[C@@H](O)[C@H](O)[C@H]6O)OC(C)(C)[C@@H]5CC[C@]43C)[C@@H]12 [ACANTHOSESSILIOSIDE D]
Result string: 0 (no)
